Target: CDK3/cyclinE (Homo sapiens)
Construct: C-terminal 6His-tagged recombinant human full-length cdk3 (MW=36 kDa); 6His (C)
Assay: CDK activity assay with p33 ATP, CDK3/cyclinE
Conditions: 1 μM ATP
pIC50: −log10 of the molar value.
measured-attribute: pIC50

Query: Would you kindly share the measured pIC50 for CC(C)(C)c1cnc(CSc2cnc(NC(=O)C3CCN(c4ncc(C(=O)NO)cn4)CC3)s2)o1 ?
Response: > 7.00

Query: And the next one, CC(C)(C)c1cnc(CSc2cnc(NC(=O)Cc3ccc(OCCCC(=O)NO)cc3)s2)o1 ?
Response: > 7.00

Query: And the next one, CC(C)(C)c1cnc(CSc2cnc(NC(=O)CCCCCCC(=O)NO)s2)o1 ?
Response: > 7.00

---

Documented melting point across a set of compounds

Recorded results for 2 compounds are shown here.
CC(C)(C)c1cnc(CSc2cnc(NC(=O)C3CCN(c4ncc(C(=O)NO)cn4)CC3)s2)o1 = 181 to 183 °C
CC(C)(C)c1cnc(CSc2cnc(NC(=O)C3CCN(CCCCC(=O)NO)CC3)s2)o1 = 93 to 97 °C

Query: Would you kindly share the measured melting point for CC(C)(C)c1cnc(CSc2cnc(NC(=O)C3CCN(CCCCCC(=O)NO)CC3)s2)o1 ?
Response: 127 to 130 °C

Query: And the next one, CC(C)(C)c1cnc(CSc2cnc(NC(=O)C3CCN(CCCCCCC(=O)NO)CC3)s2)o1 ?
Response: 113 to 115 °C

Query: And the next one, CC(C)(C)c1cnc(CSc2cnc(NC(=O)Cc3ccc(OCCC(=O)NO)cc3)s2)o1 ?
Response: 93 to 95 °C

Query: And the next one, CC(C)(C)c1cnc(CSc2cnc(NC(=O)C3CCN(CCCC(=O)NO)CC3)s2)o1 ?
Response: 176 to 180 °C

---

Target: CDK6/cyclinD3 (Homo sapiens, UniProt Q00534)
Construct: N-terminal, 6His-tagged full-length human cdk6 (MW=38 kDa); 6His (N)
Sequence (Q00534 whole entry): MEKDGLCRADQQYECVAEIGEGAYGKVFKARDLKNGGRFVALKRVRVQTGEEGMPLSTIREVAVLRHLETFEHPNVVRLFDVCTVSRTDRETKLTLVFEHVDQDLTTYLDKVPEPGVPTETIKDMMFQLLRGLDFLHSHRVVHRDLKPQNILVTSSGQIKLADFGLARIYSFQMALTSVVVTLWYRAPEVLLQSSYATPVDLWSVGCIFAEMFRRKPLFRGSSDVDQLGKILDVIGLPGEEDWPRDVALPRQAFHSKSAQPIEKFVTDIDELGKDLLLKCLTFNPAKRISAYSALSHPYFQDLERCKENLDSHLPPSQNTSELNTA
Sequence (P30281 whole entry partner): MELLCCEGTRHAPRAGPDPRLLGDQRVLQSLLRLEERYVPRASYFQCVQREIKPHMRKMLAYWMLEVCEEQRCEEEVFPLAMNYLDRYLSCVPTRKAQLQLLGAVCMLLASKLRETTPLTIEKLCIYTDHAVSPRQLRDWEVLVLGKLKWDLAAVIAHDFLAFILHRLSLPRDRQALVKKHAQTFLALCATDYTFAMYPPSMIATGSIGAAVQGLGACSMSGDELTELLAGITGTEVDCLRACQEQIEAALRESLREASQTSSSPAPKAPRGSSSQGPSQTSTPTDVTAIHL
Assay: CDK activity assay with p33 ATP, CDK6/cyclinD3
Details: 1 μM ATP; read-out: CDK6/cyclinD IC50
measured-attribute: IC50

Recorded results for 3 compounds are shown here.
CC(C)(C)c1cnc(CSc2cnc(NC(=O)CCCCCCC(=O)NO)s2)o1 = 100 to 1000 nM
CC(C)(C)c1cnc(CSc2cnc(NC(=O)CCCNCCC(=O)NO)s2)o1 = 100 to 1000 nM
CC(C)(C)c1cnc(CSc2cnc(NC(=O)CCCC(=O)NO)s2)o1 = 100 to 1000 nM

Query: Identify the measured IC50 of CC(C)(C)c1cnc(CSc2cnc(NC(=O)CCCCC(=O)NO)s2)o1 for CDK6/cyclinD3 (Homo sapiens, UniProt Q00534).
Response: 100 to 1000 nM

Query: And the next one, CC(C)(C)c1cnc(CSc2cnc(NC(=O)C3CCN(c4ncc(C(=O)NO)cn4)CC3)s2)o1 ?
Response: 1000 to 10000 nM

Query: And the next one, CC(C)(C)c1cnc(CSc2cnc(NC(=O)Cc3ccc(OCCCC(=O)NO)cc3)s2)o1 ?
Response: 100 to 1000 nM

---

Documented IC50 across a set of compounds
Molecular target: CDK2/cyclinE (Homo sapiens, UniProt P24941)
Construct: C-terminal 6His-tagged, recombinant full-length CDK2 (MW=34 kDa); 6His (C)
Assay: CDK activity assay with p33 ATP, CDK2/cyclinE
Settings: 1 μM ATP

Recorded results for 4 compounds are shown here.
CC(C)(C)c1cnc(CSc2cnc(NC(=O)c3ccc(/C=C/C(=O)NO)cc3)s2)o1 = < 100 nM
CC(C)(C)c1cnc(CSc2nnc(NC(=O)CCCCCCC(=O)NO)s2)o1 = 1000 to 10000 nM
CC(C)(C)c1cnc(CSc2cnc(NC(=O)c3ccc(OCCCCCCC(=O)NO)cc3)s2)o1 = < 100 nM
CC(C)(C)c1cnc(CSc2cnc(NC(=O)CCCC(=O)NO)s2)o1 = < 100 nM

Query: Would you kindly share the measured IC50 for CC(Sc1cnc(NC(=O)Cc2ccc(OCCCC(=O)NO)cc2)s1)c1ncc(C(C)(C)C)o1 (stereo not shown) ?
Response: < 100 nM

Query: And the next one, CC(C)(C)c1cnc(CSc2nnc(NC(=O)Cc3ccc(OCCCC(=O)NO)cc3)s2)o1 ?
Response: 1000 to 10000 nM

Query: And the next one, CC(C)(C)c1cnc(CSc2cnc(NC(=O)C3CCN(CCCCC(=O)NO)CC3)s2)o1 ?
Response: < 100 nM

Query: And the next one, CC(C)(C)c1cnc(CSc2cnc(NC(=O)Cc3ccc(OCCCC(=O)NO)cc3)s2)o1 ?
Response: < 100 nM

Query: And the next one, CC(C)(C)c1cnc(CSc2cnc(NC(=O)c3cccc(/C=C/C(=O)NO)c3)s2)o1 ?
Response: < 100 nM

Query: And the next one, CC(C(=O)Nc1ncc(SCc2ncc(C(C)(C)C)o2)s1)c1ccc(OCCCC(=O)NO)cc1 (stereo not shown) ?
Response: < 100 nM

Query: And the next one, CC(C)(C)c1cnc(CSc2cnc(NC(=O)Cc3ccc(OCCC(=O)NO)cc3)s2)o1 ?
Response: < 100 nM

Query: And the next one, CC(C)(C)c1cnc(CSc2cnc(NCC3CCN(c4ncc(C(=O)NO)cn4)CC3)s2)o1 ?
Response: < 100 nM

Query: And the next one, CC(C)(C)c1cnc(CSc2cnc(NC(=O)C(C)(C)c3ccc(OCCCC(=O)NO)cc3)s2)o1 ?
Response: < 100 nM

Query: And the next one, CC(C)(C)c1cnc(CSc2cnc(NS(=O)(=O)c3cccc(/C=C/C(=O)NO)c3)s2)o1 ?
Response: 1000 to 10000 nM

Query: And the next one, CC(C)(C)c1cnc(CSc2cnc(NC(=O)c3ccc(OCCCC(=O)NO)cc3)s2)o1 ?
Response: < 100 nM

Query: And the next one, CC(C)(C)c1cnc(CSc2cnc(NC(=O)C3CCN(CCCC(=O)NO)CC3)s2)o1 ?
Response: < 100 nM

---

Biological target: T1, CDK9/cyclinT1 (Homo sapiens, UniProt P50750)
T1 construct: C-terminal 6His-tagged, full-length recombinant, human cdk9 (MW=44 kDa); 6His (C)
T1 sequence (P50750 whole entry): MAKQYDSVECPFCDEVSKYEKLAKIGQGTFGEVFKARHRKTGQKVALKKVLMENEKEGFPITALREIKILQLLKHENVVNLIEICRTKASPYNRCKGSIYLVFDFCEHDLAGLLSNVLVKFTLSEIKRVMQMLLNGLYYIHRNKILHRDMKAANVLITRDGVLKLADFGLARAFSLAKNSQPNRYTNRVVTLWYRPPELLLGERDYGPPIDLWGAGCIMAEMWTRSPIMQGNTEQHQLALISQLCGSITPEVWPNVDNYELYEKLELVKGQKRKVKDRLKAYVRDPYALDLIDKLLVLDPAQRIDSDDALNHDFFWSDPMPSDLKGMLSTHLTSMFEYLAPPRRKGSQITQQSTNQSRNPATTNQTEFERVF
T1 sequence (O60563 whole entry partner): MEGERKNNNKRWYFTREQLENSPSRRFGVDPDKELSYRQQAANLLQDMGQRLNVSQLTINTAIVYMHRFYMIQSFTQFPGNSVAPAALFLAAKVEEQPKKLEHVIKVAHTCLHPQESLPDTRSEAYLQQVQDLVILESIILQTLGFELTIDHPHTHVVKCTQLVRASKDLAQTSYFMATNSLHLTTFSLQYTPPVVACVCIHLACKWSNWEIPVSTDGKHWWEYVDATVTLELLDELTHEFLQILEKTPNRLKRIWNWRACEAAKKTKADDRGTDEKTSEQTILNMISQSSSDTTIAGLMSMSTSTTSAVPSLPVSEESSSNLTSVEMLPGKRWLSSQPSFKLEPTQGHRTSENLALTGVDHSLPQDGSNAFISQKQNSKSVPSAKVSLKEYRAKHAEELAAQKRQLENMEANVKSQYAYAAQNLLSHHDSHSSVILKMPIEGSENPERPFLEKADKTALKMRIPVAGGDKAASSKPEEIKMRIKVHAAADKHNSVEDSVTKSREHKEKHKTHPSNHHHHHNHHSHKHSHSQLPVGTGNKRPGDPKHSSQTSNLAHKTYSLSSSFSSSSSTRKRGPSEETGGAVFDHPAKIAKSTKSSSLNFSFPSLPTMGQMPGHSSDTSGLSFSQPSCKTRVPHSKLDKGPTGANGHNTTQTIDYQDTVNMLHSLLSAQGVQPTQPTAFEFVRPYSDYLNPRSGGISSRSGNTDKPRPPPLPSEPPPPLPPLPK
Test: CDK activity assay with p33 ATP, CDK9/cyclinT1
Details: 1 μM ATP
From the text: CDK9/cyclinT1 (Accession Number for CDK9; GenBank AF517840, for Cyclin T1; GenBank NM_001240) C-terminal 6His-tagged, full-length recombinant, human cdk9 (MW=44 kDa) were co-expressed with untagged, full-length human cyclin T1 (MW=80.79 kDa) with baculovirus system in Sf21 insect cells. Recombinant protein complex was purified with Ni^2+/NTA agarose. […]
measured-attribute: IC50

Query: Identify the measured IC50 of CC(C)(C)c1cnc(CSc2cnc(NC(=O)Cc3ccc(OCCCC(=O)NO)cc3)s2)o1 for T1, CDK9/cyclinT1 (Homo sapiens, UniProt P50750).
Response: < 100 nM

Query: And the next one, CC(C)(C)c1cnc(CSc2cnc(NC(=O)CCCCCCC(=O)NO)s2)o1 ?
Response: < 100 nM

Query: And the next one, CC(C)(C)c1cnc(CSc2cnc(NC(=O)C3CCN(c4ncc(C(=O)NO)cn4)CC3)s2)o1 ?
Response: < 100 nM
